Origin of measurements: patent US10071992B2

# TEST SYSTEM: UniProt:Q96PD7
# Sequence (Q96PD7 whole entry): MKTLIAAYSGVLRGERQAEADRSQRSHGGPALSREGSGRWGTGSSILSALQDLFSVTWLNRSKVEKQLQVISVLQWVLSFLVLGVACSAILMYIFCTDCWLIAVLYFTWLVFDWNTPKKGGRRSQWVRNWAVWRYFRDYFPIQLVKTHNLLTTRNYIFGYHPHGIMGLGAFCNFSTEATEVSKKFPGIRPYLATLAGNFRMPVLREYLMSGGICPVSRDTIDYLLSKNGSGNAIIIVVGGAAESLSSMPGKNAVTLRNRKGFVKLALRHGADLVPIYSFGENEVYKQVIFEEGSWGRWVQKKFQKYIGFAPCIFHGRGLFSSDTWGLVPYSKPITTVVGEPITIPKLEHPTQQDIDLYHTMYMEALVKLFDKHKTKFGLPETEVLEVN
# ASSAY INFO: In vitro DGAT2 assay, determination of IC50 values for DGAT2 inhibitors
# Type: biochemical
# CONDITION NOTES: geometric mean; hDGAT2 membrane fraction, [1-14C]decanoyl-CoA and 1,2-didecanoyl-sn-glycerol
MEASURE NAME: IC50 (nM)

1. CCOc1cccnc1Oc1cncc(-c2ncc(C(=O)NC(C)(C)CO)nn2)c1 | 83
2. CCOc1cccnc1Oc1cncc(-c2ncc(C(=O)NC(C)(C)CS(C)(=O)=O)cn2)c1 | 35.4
3. CCOc1cc(F)cnc1Oc1cncc(-c2ncc(C(=O)N[C@H]3CCOC3)cn2)c1 | 3.7
4. CCOc1cccnc1Oc1cncc(-c2ncc(C(=O)N[C@@H]3CCOC3)cn2)c1 | 200

I = CCOc1cccnc1Oc1cncc(-c2ncc(C(=O)NC(C)(C)CO)cn2)c1
II = CCOc1cccnc1Oc1cncc(-c2ncc(C(=O)NC(C)(C)C#N)cn2)c1
Prompt: Please indicate which entry, I or II , has the lower recorded IC50 value. # reply format: chosen label
Completion: II
